All values here come from ChEMBL document CHEMBL4715837.

# Test system: Quadruplex DNA
# assay_protocol: Binding affinity at Tel21 G4 quadruplex DNA (unknown origin) assessed as change in melting temperature at 6 uM by circular dichroism spectrophotometric method
# Format: nucleic acid
measurement_name: deltaTm (°C)

INSERT INTO measurements (structure_smiles_string, study_system, observed_measurement) VALUES
  ('CN1CCN(c2ccc(-c3nc(-c4ccc(-c5nc(-c6ccc(F)cc6)c(-c6ccc(N7CCN(C)CC7)cc6)[nH]5)cc4)[nH]c3-c3ccc(N4CCN(C)CC4)cc3)cc2)CC1', 'Quadruplex DNA', 6.5);

P: CN1CCN(c2ccc(-c3nc(-c4ccc(-c5nc(-c6ccc(F)cc6)c(-c6ccc(N7CCN(C)CC7)cc6)[nH]5)cc4)[nH]c3-c3ccc(F)cc3)cc2)CC1
Q: CN1CCN(c2ccc(-c3nc(-c4ccc(-c5nc(-c6ccc(F)cc6)c(-c6ccc(F)cc6)[nH]5)cc4)[nH]c3-c3ccc(N4CCN(C)CC4)cc3)cc2)CC1
Which has the smaller recorded deltaTm, P or Q ? Could you answer with the label of the item you picked?
P
(P: 1.7 °C, Q: 6.1 °C)

---

# Test system: Quadruplex DNA
# assay_protocol: Binding affinity at Tel45 G4 quadruplex DNA (unknown origin) assessed as change in melting temperature at 6 uM by circular dichroism spectrophotometric method
# Assay type: nucleic-acid assay
measurement_name: ΔTm (°C)

INSERT INTO assay_data (structure_smiles_string, measurement_name, observed_measurement) VALUES
  ('CN1CCN(c2ccc(-c3nc(-c4ccc(-c5nc(-c6ccc(F)cc6)c(-c6ccc(N7CCN(C)CC7)cc6)[nH]5)cc4)[nH]c3-c3ccc(F)cc3)cc2)CC1', 'ΔTm', 12.7);

a: CN1CCN(c2ccc(-c3nc(-c4ccc(-c5nc(-c6ccc(F)cc6)c(-c6ccc(N7CCN(C)CC7)cc6)[nH]5)cc4)[nH]c3-c3ccc(N4CCN(C)CC4)cc3)cc2)CC1
b: CN1CCN(c2ccc(-c3nc(-c4ccc(-c5nc(-c6ccc(F)cc6)c(-c6ccc(F)cc6)[nH]5)cc4)[nH]c3-c3ccc(N4CCN(C)CC4)cc3)cc2)CC1
c: CN1CCN(c2ccc(-c3nc(-c4ccc(-c5nc(-c6ccc(N7CCN(C)CC7)cc6)c(-c6ccc(N7CCN(C)CC7)cc6)[nH]5)cc4)[nH]c3-c3ccc(N4CCN(C)CC4)cc3)cc2)CC1
Ascending sort, ΔTm. Your answer should be the labels, listed in the requested order.
c, b, a
(c: 6.9 °C, b: 10.9 °C, a: 15.7 °C)
